System: HCT-15 colon
run description: NCI tumour cell line growth inhibition, 48 h; in the data active = GI50 below about 0.43 µM; inactive = the rest
*1 amine or outer side, *2 acyl side, *3 side chain or, on linkers, in order; H or OH if unused. Where a SMILES comes first, the peptide text is derived from it. Bridges are numbered along the chain shown (N, C = ends). [ ]: non-standard residue; d: D form. The star is where a group is joined. Phe(3-Me) = Cc1cccc(C[C@H](N)C(=O)O)c1; NH(4-Cl-2-F-phenyl) = Fc1cc(Cl)ccc1N*; Pro(4R-Me) = C[C@H]1CN[C@H](C(=O)O)C1; Hyp = O=C(O)[C@@H]1C[C@@H](O)CN1; aThr = C[C@H](O)[C@H](N)C(=O)O; Pip = O=C(O)[C@@H]1CCCCN1; CO = O=C([*:1])[*:2]
Your response should consist of one outcome taken from true = active, false = inactive

Some entries whose results are on file:
- O=c1[nH]nc2c3c(cccc13)NC(CN1Cc3ccccc3C1)=N2: false
- CN(C)CC#Cc1cccc(C(=O)c2cnn(-c3ccc(F)cc3)c2N)c1: false
- Cc1cc(-c2nc3ccc(O)cc3s2)ccc1N: false
- Cc1cccc(C[C@H](NC(=O)Nc2ccc(Cl)cc2F)C(=O)N[C@@H]2C(=O)N3C[C@H](O)C[C@H]3C(=O)N3CCCC[C@H]3C(=O)N[C@@H](C)C(=O)N3C[C@H](C)C[C@H]3C(=O)O[C@H]2C)c1 ({NH(4-Cl-2-F-phenyl)-CO}-[Phe(3-Me)][aThr][Hyp][Pip]A[Pro(4R-Me)]; ester 2-C): false
- N#CSCC1CC(O)(c2ccccc2)C(c2ccccc2)C(c2ccc(F)cc2)O1 (stereo not given): false
- NC(=NC1CCCCCC1)c1ccc(N2CCN(c3ccc(C(N)=NC4CCCCCC4)cc3)CC2)cc1: false

Here's the next entry for you.
Task item: Assay result, entry `CCOC(=O)[C@@H](C)C[C@H](Cc1ccccc1)NC(=O)c1csc([C@@H](C[C@H](C(C)C)N(C)C(=O)[C@H](CCC(C)C)NC(=O)[C@H]2CCCCN2C)OC(C)=O)n1` — outcome?
Reply: true
